Origin of the recorded values: patent US11266147B2

# method_summary: LogP by HPLC on reversed phase columns (EEC directive 79/831 Annex V.A8)
# Assay type: physicochemical
# condition_description: method [a]: LC-UV, acidic range, 0.1% formic acid in water and acetonitrile, linear gradient 10% to 95% acetonitrile
quantity: LogP

Use these answered entries as a reference point.
Tell me the measured LogP of FC(F)(Cl)c1nc(-c2cnc(NC3CCOCC3)nc2)no1 , please.
2.76^[a]

What does the data say about its LogP? Entry: Fc1cccc(Nc2ncc(-c3noc(C(F)(F)Cl)n3)cn2)c1
4.18^[a]

Quick one: LogP of Fc1cccc(Nc2ncc(-c3noc(C(F)(F)F)n3)cn2)c1 ?
3.94^[a]

Field request: LogP | item: FC1(F)CC(Nc2ncc(-c3noc(C(F)(F)Cl)n3)cn2)C1
3.48^[a]

Name the recorded LogP for FC(F)(Cl)c1nc(-c2cnc(NC3CC3)nc2)no1 .
2.76^[a]

***
I would be grateful if you could share the reported LogP for Fc1ccc(Nc2ncc(-c3noc(C(F)(F)F)n3)cn2)cc1 .
3.79^[a]

Which value of LogP has been reported for CN(c1ncc(-c2noc(C(F)(F)Cl)n2)cn1)C1CCCC1 in the records?
5.42^[a]

Which measured LogP value corresponds to Fc1ccccc1Nc1ncc(-c2noc(C(F)(F)Cl)n2)cn1 ?
3.94^[a]

###

# Lookup of reported LogP keyed by entry
# method_summary: LogP by HPLC on reversed phase columns (EEC directive 79/831 Annex V.A8)
# Assay type: physicochemical
# condition_description: method [a]: LC-UV, acidic range, 0.1% formic acid in water and acetonitrile, linear gradient 10% to 95% acetonitrile

Example entries begin here.
Which measured LogP value corresponds to FC(F)(F)c1nc(-c2cnc(Nc3ccsc3)nc2)no1 [Compound I-58] ?
3.70^[a]

I am curious: what LogP value has been reported for FC(F)(F)c1nc(-c2cnc(NC3CCOC3)nc2)no1 (centres unmarked) [Compound I-10] ?
2.35^[a]

Which LogP reading was recorded for the compound FC(F)Oc1ccc(Nc2ncc(-c3noc(C(F)(F)Cl)n3)cn2)cc1 [Compound I-69] ?
4.11^[a]

Reported LogP, compound FC(F)(Cl)c1nc(-c2cnc(NC3=NCCS3)nc2)no1 [Compound I-33] : ____
1.26^[a]

Next item in the queue.
// returns reported LogP for input FC(F)(Cl)c1nc(-c2cnc(Nc3ccccc3)nc2)no1 [Compound I-71]
3.96^[a]

###

Catalogue of compounds with associated LogP
# method_summary: LogP by HPLC on reversed phase columns (EEC directive 79/831 Annex V.A8)
# Assay type: physicochemical
# condition_description: method [a]: LC-UV, acidic range, 0.1% formic acid in water and acetonitrile, linear gradient 10% to 95% acetonitrile

// below: answered compounds
Could you share which LogP value was measured for COc1ccc(Nc2ncc(-c3noc(C(F)(F)F)n3)cn2)cc1 [Compound I-59] ?
3.57^[a]

Requested field: LogP. Item: FC(F)(Cl)c1nc(-c2cnc(Nc3ccsc3)nc2)no1 [Compound I-65]
3.92^[a]

State the recorded LogP for this entry: FC(F)(Cl)c1nc(-c2cnc(NC3CCOC3)nc2)no1 (stereo not drawn) [Compound I-11]
2.55^[a]

Would you mind telling me what LogP value was observed for FC(F)(F)c1nc(-c2cnc(NC3=NCCS3)nc2)no1 [Compound I-34] ?
1.08^[a]

Query (compound): Cc1cccc(Nc2ccc(-c3noc(C(F)(F)F)n3)cc2)c1 [Compound I-35] ; field requested: LogP
4.93^[a]

More entries:
Given FC(F)(F)c1cccc(Nc2ccc(-c3noc(C(F)(F)F)n3)cc2)c1 [Compound I-36] , state its recorded LogP.
5.08^[a]

Requested read-out: LogP. Entry: CC(=O)Nc1cccc(Nc2ncc(-c3noc(C(F)(F)Cl)n3)cn2)c1 [Compound I-74]
2.75^[a]

# lookup: LogP of Cc1ccnc(Nc2ccc(-c3noc(C(F)(F)Cl)n3)cc2)n1 [Compound I-40]
2.98^[a]

Find the recorded LogP belonging to FC(F)(F)c1cccc(Nc2ncc(-c3noc(C(F)(F)F)n3)cn2)c1 [Compound I-53] and report it.
4.46^[a]
